assay-target: BTK enzyme (recombinant full-length BTK, hBTK) (Homo sapiens)
Construct: recombinant protein from baculovirus-transfected Sf9 cells: full-length BTK, 6HIS-tag cleaved; 6HIS (cleaved yes); made in house; host or cells: baculovirus-transfected Sf9 cells
experiment-description: Btk enzyme activity assay, LANCE TR-FRET
Assay type: biochemical
test-conditions: 50 pM hBTK, 2 μM biotin-A5-peptide, 25 μM ATP; 60 minute compound & enzyme incubation; 120 minutes reaction; read-out: BTK binding potency IC50
pIC50: −log10 of the molar value.
# maps each entry to its pIC50
property-name: pIC50

- NC(=O)c1cnc(N2CCCC3(CCNC3=O)C2)c2c1[nH]c1ccc(C3CCNCC3)cc12 (stereo not drawn) [Example 45]: 6.69
- CS(=O)(=O)N1CCC(c2ccc3c(c2)[nH]c2c(C(N)=O)cnc(N4CCCC5(CCNC5=O)C4)c23)CC1 (stereo not drawn) [Example 57]: 8.68
- CC(=O)N1CCC2(C1)CN(c1ncc(C(N)=O)c3[nH]c4ccccc4c13)C2 [Example 27]: 6.63
- CC(C)c1ccc(N2CCCC3(CCCN(c4ncc(C(N)=O)c5[nH]c6ccccc6c45)C3)C2=O)cc1 (stereo not drawn) [Example 5]: 6.31
- COc1cc(-c2ccc3c(c2)[nH]c2c(C(N)=O)cnc(N4CCC[C@@]5(CCNC5=O)C4)c23)ccn1 [Example 69]: 7.76
- CNC(=O)N1CCC(c2ccc3[nH]c4c(C(N)=O)cnc(N5CCCC6(CCNC6=O)C5)c4c3c2)CC1 (stereo not drawn) [Example 47]: 7.14
- CC(C)(O)CN1CCC(c2ccc3c(c2)[nH]c2c(C(N)=O)cnc(N4CCCC5(CCNC5=O)C4)c23)CC1 (stereo not drawn) [Example 54]: 8.92
- NC(=O)c1cnc(N2CCC[C@@]3(C2)C(=O)NC[C@@H]3c2ccccc2)c2c1[nH]c1ccccc12 (single isomer, unassigned) [Example 88]: 7.11
- CC(C)(C)OC(=O)N1CC2(CCN(c3ncc(C(N)=O)c4[nH]c5ccccc5c34)CC2)C1 [Example 16]: 7.01

----------
assay-target: BTK enzyme (recombinant full-length BTK, hBTK) (Homo sapiens, UniProt Q06187)
Construct: recombinant protein from baculovirus-transfected Sf9 cells: full-length BTK, 6HIS-tag cleaved; 6HIS (cleaved yes); made in house; host or cells: baculovirus-transfected Sf9 cells
Sequence (Q06187 whole entry): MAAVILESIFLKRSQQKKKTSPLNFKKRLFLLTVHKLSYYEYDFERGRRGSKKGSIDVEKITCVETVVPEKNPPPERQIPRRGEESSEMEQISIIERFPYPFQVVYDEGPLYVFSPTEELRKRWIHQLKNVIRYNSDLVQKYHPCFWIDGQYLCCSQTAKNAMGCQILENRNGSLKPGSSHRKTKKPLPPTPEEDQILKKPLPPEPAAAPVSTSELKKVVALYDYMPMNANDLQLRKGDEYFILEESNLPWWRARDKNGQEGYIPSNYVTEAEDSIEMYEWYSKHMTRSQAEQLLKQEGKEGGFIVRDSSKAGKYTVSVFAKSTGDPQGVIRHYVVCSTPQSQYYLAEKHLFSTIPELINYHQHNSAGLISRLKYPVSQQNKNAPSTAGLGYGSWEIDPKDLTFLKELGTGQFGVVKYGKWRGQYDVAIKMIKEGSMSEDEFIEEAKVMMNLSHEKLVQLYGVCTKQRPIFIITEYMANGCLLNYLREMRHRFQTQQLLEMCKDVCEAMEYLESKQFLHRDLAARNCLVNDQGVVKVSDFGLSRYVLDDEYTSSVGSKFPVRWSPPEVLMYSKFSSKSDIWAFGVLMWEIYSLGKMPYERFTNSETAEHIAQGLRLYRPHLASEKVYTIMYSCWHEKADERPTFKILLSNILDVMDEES
experiment-description: Btk enzyme activity assay, LANCE TR-FRET
Format: biochemical
test-conditions: 50 pM hBTK, 2 μM biotin-A5-peptide, 25 μM ATP; 60 minute compound & enzyme incubation; 120 minutes reaction; read-out: BTK binding potency IC50
property-name: IC50 (nM)

* NC(=O)c1cnc(N2CCCC3(C2)NCCNC3=O)c2c1[nH]c1ccccc12 (stereo not drawn) | 82.8
* NC(=O)c1cnc(N2CC3(CCNC3)C2)c2c1[nH]c1ccccc12 | 160
* CC(=O)N1CCC(c2ccc3[nH]c4c(C(N)=O)cnc(N5CCCC6(CCNC6=O)C5)c4c3c2)CC1 (stereo not drawn) | 81.8
* NC(=O)c1cnc(N2CCCC3(CCNC3=O)C2)c2c1[nH]c1cc(C3CCCNC3)ccc12 (stereo not drawn) | 1.6
* NC(=O)c1cnc(N2CCC[C@@]3(C2)C(=O)NC[C@@H]3O)c2c1[nH]c1ccccc12 | 117
* NC(=O)c1cnc(N2CCCC3(C2)OCCN(c2ccc(F)cc2)C3=O)c2c1[nH]c1ccccc12 (stereo not drawn) | 109
* CC(C)N1CCC(c2ccc3c(c2)[nH]c2c(C(N)=O)cnc(N4CCCC5(CCNC5=O)C4)c23)CC1 (stereo not drawn) | 0.96
* CN1C[C@@H](CO)[C@@]2(CCCN(c3ncc(C(N)=O)c4[nH]c5ccccc5c34)C2)C1=O (racemic) | 64
* NC(=O)c1cnc(N2CCCC3(CCNC3=O)C2)c2c1[nH]c1cc(C(=O)O)ccc12 (stereo not drawn) | 448
* CN1CCCC2(CCCN(c3ncc(C(N)=O)c4[nH]c5ccccc5c34)C2)C1=O (stereo not drawn) | 55.2
* CC(C)(C)c1ccc(N2CCC3(CCCN(c4ncc(C(N)=O)c5[nH]c6ccccc6c45)C3)CC2=O)cc1 (stereo not drawn) | 420
* NC(=O)c1cnc(N2CCCC3(CCCN(c4ccc(F)cc4)C3=O)C2)c2c1[nH]c1ccccc12 (stereo not drawn) | 17
* NC(=O)c1cnc(N2CCCC3(CCNC3=O)C2)c2c1[nH]c1cc(C3CCNCC3)ccc12 (stereo in doubt) [Example 63] | 6.3
* NC(=O)c1cnc(N2CCC3(CC2)CNC(=O)C3)c2c1[nH]c1ccccc12 | 19.4
* NC(=O)c1cnc(N2CCCC3(CCNC3=O)C2)c2c1[nH]c1ccc(C(O)CO)cc12 (stereo not drawn) | 16.5
* NC(=O)c1cnc(N2CCCC3(CCNC3=O)C2)c2c1[nH]c1cc(C3CCNCC3)ccc12 (stereo not drawn) [Example 42] | 1.4
* CN1CC[C@@]2(CCCN(c3ncc(C(N)=O)c4[nH]c5cc(C6CCC(CC(C)(C)O)CC6)ccc5c34)C2)C1=O (stereo partly drawn) | 2.9
* NC(=O)c1cnc(N2CCC[C@@]3(CCCN(c4ccc(F)cc4)C3=O)C2)c2c1[nH]c1ccc(C(=O)O)cc12 | 12.6
* CC(C)N1CCC(c2ccc3[nH]c4c(C(N)=O)cnc(N5CCCC6(CCNC6=O)C5)c4c3c2)CC1 (stereo not drawn) | 58.7
* CC(C)(C)c1ccc(N2CCC3(CCCN(c4ncc(C(N)=O)c5[nH]c6ccccc6c45)C3)C2=O)cc1 (stereo not drawn) | 9530
* CC(C)N1CCC(c2ccc3c(c2)[nH]c2c(C(N)=O)cnc(N4CCC[C@@]5(CCNC5=O)C4)c23)CC1 | 0.83
* NC(=O)c1cnc(N2CCC3(CCNC3=O)CC2)c2c1[nH]c1ccccc12 | 31.1
* COC(=O)N1CCC(c2ccc3[nH]c4c(C(N)=O)cnc(N5CCCC6(CCNC6=O)C5)c4c3c2)CC1 (stereo not drawn) | 87.9
* NC(=O)c1cnc(N2CCC[C@@]3(CCCN(c4ccc(F)cc4)C3=O)C2)c2c1[nH]c1ccccc12 | 149
* NC(=O)c1cnc(N2CCCC3(CCNC3=O)C2)c2c1[nH]c1cc(C3CCN(CC(=O)O)CC3)ccc12 (stereo not drawn) | 1.6
* CC(C)N1CCCC2(CCCN(c3ncc(C(N)=O)c4[nH]c5ccccc5c34)C2)C1=O (stereo not drawn) | 120
* COc1ccc(-c2ccc3c(c2)[nH]c2c(C(N)=O)cnc(N4CCC[C@@]5(CCNC5=O)C4)c23)cn1 | 13.9
* COC(=O)N1CCC(c2ccc3c(c2)[nH]c2c(C(N)=O)cnc(N4CCCC5(CCNC5=O)C4)c23)CC1 (stereo not drawn) | 3
* CC(=O)N1CC2(CCCN(c3ncc(C(N)=O)c4[nH]c5ccccc5c34)C2)C1 | 271
* NC(=O)c1cnc(N2CCC[C@@]3(CCNC3=O)C2)c2c1[nH]c1cc(-c3ccc(=O)[nH]c3)ccc12 | 3.9

----------
# maps each entry to its IC50
assay-target: BTK enzyme (recombinant full-length BTK, hBTK) (Homo sapiens, UniProt Q06187)
Construct: recombinant protein from baculovirus-transfected Sf9 cells: full-length BTK, 6HIS-tag cleaved; 6HIS (cleaved yes); made in house; host or cells: baculovirus-transfected Sf9 cells
experiment-description: Btk enzyme activity assay, LANCE TR-FRET
Type: biochemical
test-conditions: 50 pM hBTK, 2 μM biotin-A5-peptide, 25 μM ATP; 60 minute compound & enzyme incubation; 120 minutes reaction; read-out: BTK binding potency IC50
property-name: IC50 (nM)

- NC(=O)c1cnc(N2CCC3(CC2)CNC3)c2c1[nH]c1ccccc12 [Example 19]: 22
- CN1CC[C@@]2(CCCN(c3ncc(C(N)=O)c4[nH]c5cc(C6CCN(CC(C)(C)O)CC6)ccc5c34)C2)C1=O [Example 77]: 0.55
- CN1CC(CO)C2(CCCN(c3ncc(C(N)=O)c4[nH]c5ccccc5c34)C2)C1=O (single isomer, unassigned) [Example 90]: 115
- NC(=O)c1cnc(N2CCCC3(CCNC3=O)C2)c2c1[nH]c1cc(C3CCNCC3)ccc12 (stereo in doubt) [Example 64]: 0.63

----------
assay-target: BTK enzyme (recombinant full-length BTK, hBTK) (Homo sapiens, UniProt Q06187)
Construct: recombinant protein from baculovirus-transfected Sf9 cells: full-length BTK, 6HIS-tag cleaved; 6HIS (cleaved yes); made in house; host or cells: baculovirus-transfected Sf9 cells
experiment-description: Btk enzyme activity assay, LANCE TR-FRET
Assay type: biochemical
test-conditions: 50 pM hBTK, 2 μM biotin-A5-peptide, 25 μM ATP; 60 minute compound & enzyme incubation; 120 minutes reaction; read-out: BTK binding potency IC50
Protocol: Btk Enzyme Activity Assay Methods BTK enzymatic activity was determined with the LANCE (Lanthanide Chelate Excite) TR-FRET (lime-resolved fluorescence resonance energy transfer) assay. […] After 60 minutes incubation with detection reagents, reaction plates were read on a PerkinElmer EnVision plate reader using standard TR-FRET protocol. […] Fluorescence intensity at both 665 nm (acceptor) and 615 nm (donor) are measured and a TR-FRET ratio calculated for each well (acceptor intensity/donor intensity). […]
# maps each entry to its IC50
property-name: IC50 (nM)

* COc1cc(-c2ccc3c(c2)[nH]c2c(C(N)=O)cnc(N4CCC[C@@]5(CCN(C)C5=O)C4)c23)ccn1 [Example 75] | 9.5
* CC(C)(C)OC(=O)N1CCC(c2ccc3c(c2)[nH]c2c(C(N)=O)cnc(N4CCCC5(CCNC5=O)C4)c23)CC1 (centres unmarked) [Example 43] | 7.4
* NC(=O)c1cnc(N2CCCC3(CCNC(=O)C3)C2)c2c1[nH]c1ccccc12 (centres unmarked) [Example 37] | 46.4
* CN1CC(CO)C2(CCCN(c3ncc(C(N)=O)c4[nH]c5ccccc5c34)C2)C1=O (single isomer, unassigned) [Example 91] | 1000
* NC(=O)c1cnc(N2CCCC3(CCNC3=O)C2)c2c1[nH]c1ccc(C3CCN(CC(=O)O)CC3)cc12 (centres unmarked) [Example 48] | 47.6
* NC(=O)c1cnc(N2CCCC3(CCCNC3=O)C2)c2c1[nH]c1ccccc12 (centres unmarked) [Example 30] | 28
* CC(C)N1CCC(c2ccc3c(c2)[nH]c2c(C(N)=O)cnc(N4CCC[C@@]5(CCN(C)C5=O)C4)c23)CC1 [Example 76] | 0.64
* CC(C)(O)CN1CCC(c2ccc3c(c2)[nH]c2c(C(N)=O)cnc(N4CCC[C@@]5(CCNC5=O)C4)c23)CC1 [Example 72] | 0.63
* COc1ccc(-c2ccc3c(c2)[nH]c2c(C(N)=O)cnc(N4CCC[C@@]5(CCN(C)C5=O)C4)c23)cn1 [Example 74] | 8.9
* O=C(NO)c1cnc(N2CCCC3(CCNC3=O)C2)c2c1[nH]c1ccccc12 (centres unmarked) [Example 9] | 384
* NC(=O)c1cnc(N2CCC[C@@]3(CCNC3=O)C2)c2c1[nH]c1cc(-c3cc[nH]c(=O)c3)ccc12 [Example 70] | 5.4
* CN1CCC(c2ccc3[nH]c4c(C(N)=O)cnc(N5CCCC6(CCNC6=O)C5)c4c3c2)CC1 (centres unmarked) [Example 60] | 76.9
* NC(=O)c1cnc(N2CCC[C@]3(C2)C(=O)NC[C@@H]3O)c2c1[nH]c1ccccc12 [Example 24] | 9
* NC(=O)c1cnc(N2CCC3(CCCN(c4ccc(F)cc4)C3=O)C2)c2c1[nH]c1ccccc12 (centres unmarked) [Example 33] | 212
* CC(C)(O)CN1CCC(c2ccc3[nH]c4c(C(N)=O)cnc(N5CCCC6(CCNC6=O)C5)c4c3c2)CC1 (centres unmarked) [Example 62] | 59.7
* NC(=O)c1cnc(N2CCC3(CCNC3)CC2)c2c1[nH]c1ccccc12 [Example 12] | 35
* CN1CC[C@@]2(CCCN(c3ncc(C(N)=O)c4[nH]c5cc(-c6cccc(C(O)C(F)(F)F)c6)ccc5c34)C2)C1=O (some centres unmarked) [Example 79] | 63
* NC(=O)c1cnc(N2CCC[C@]3(C2)C(=O)NC[C@H]3O)c2c1[nH]c1ccccc12 (stereo in doubt) [Example 17] | 538
* COC(=O)CC1CCC(c2ccc3c(c2)[nH]c2c(C(N)=O)cnc(N4CCC[C@@]5(CCN(C)C5=O)C4)c23)CC1 (some centres unmarked) [Example 81] | 5.5
* CC(C)(C)OC(=O)N1CCC(c2ccc3[nH]c4c(C(N)=O)cnc(N5CCCC6(CCNC6=O)C5)c4c3c2)CC1 (centres unmarked) [Example 46] | 377
* NC(=O)c1cnc(N2CCCC3(C2)C(=O)NCC3O)c2c1[nH]c1ccccc12 (mixture of isomers) [Example 86] | 170
* CC(C)(C)OC(=O)N1CC2(CCCN(c3ncc(C(N)=O)c4[nH]c5ccccc5c34)C2)C1 [Example 28] | 579
* NC(=O)c1cnc(N2CCCC3(CCNC3=O)C2)c2c1[nH]c1ccc(C(=O)O)cc12 (centres unmarked) [Example 84] | 48.8
* COC(=O)CCN1CCCC2(CCCN(c3ncc(C(N)=O)c4[nH]c5ccccc5c34)C2)C1=O (centres unmarked) [Example 31] | 96.8
* CC(=O)N1CCC(c2ccc3c(c2)[nH]c2c(C(N)=O)cnc(N4CCCC5(CCNC5=O)C4)c23)CC1 (centres unmarked) [Example 58] | 1.4
* NC(=O)c1cnc(N2CCC[C@]3(CCCN(c4ccc(F)cc4)C3=O)C2)c2c1[nH]c1ccccc12 [Example 2] | 12.9
* CN1CCC(c2ccc3c(c2)[nH]c2c(C(N)=O)cnc(N4CCCC5(CCNC5=O)C4)c23)CC1 (centres unmarked) [Example 55] | 1.3
* CS(=O)(=O)N1CCC(c2ccc3[nH]c4c(C(N)=O)cnc(N5CCCC6(CCNC6=O)C5)c4c3c2)CC1 (centres unmarked) [Example 66] | 125
* CC(=O)N1CCC2(CCN(c3ncc(C(N)=O)c4[nH]c5ccccc5c34)CC2)C1 [Example 14] | 26
